TARGET SYSTEM: Prostaglandin G/H synthase 1 (Ovis aries)
Sequence (P05979 whole entry): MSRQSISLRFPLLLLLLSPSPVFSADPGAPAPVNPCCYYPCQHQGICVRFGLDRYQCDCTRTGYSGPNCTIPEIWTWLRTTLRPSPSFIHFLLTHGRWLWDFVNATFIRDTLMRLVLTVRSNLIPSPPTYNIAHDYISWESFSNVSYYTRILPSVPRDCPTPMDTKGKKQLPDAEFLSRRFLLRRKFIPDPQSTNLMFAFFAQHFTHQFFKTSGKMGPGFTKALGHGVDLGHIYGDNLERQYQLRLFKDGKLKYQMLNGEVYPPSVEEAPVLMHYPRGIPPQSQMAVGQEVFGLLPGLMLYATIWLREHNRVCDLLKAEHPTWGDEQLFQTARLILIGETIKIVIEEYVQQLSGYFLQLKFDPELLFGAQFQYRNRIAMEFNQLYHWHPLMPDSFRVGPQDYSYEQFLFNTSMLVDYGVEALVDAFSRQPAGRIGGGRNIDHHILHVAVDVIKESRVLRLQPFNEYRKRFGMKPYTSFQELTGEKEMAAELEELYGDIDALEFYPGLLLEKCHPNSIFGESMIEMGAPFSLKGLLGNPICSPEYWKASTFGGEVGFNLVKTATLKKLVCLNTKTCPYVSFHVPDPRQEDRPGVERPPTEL
TEST: Inhibition of COX1 in ram seminal vesicle by enzyme immunoassay
SETUP CONDITIONS: read-out: IC50
Listed here are compounds together with their documented pIC50.
To interpret pIC50, take it as minus log10 of a concentration measured in moles per litre.

The examples below pair each entry with its known result.
C=CCc1ccc(O)c(-c2ccc(OC)c(/C=C\C)c2)c1 :: 5.55
CCCc1ccc(O)c(-c2ccc(O)c(CCC)c2)c1 :: 6.10
CCCc1ccc(O)c(-c2ccc(OC)c(CCC)c2)c1 :: 5.11
C=CCc1ccc(O)c(-c2ccc(O)c(/C=C/C)c2)c1 :: 6.22
C=CCc1ccc(OC)c(-c2ccc(OC)c(CC=C)c2)c1 :: 4.94
C=CCc1ccc(O)c(-c2ccc(OC)c(CC=C)c2)c1 [METHYLHONOKIOL] :: 7.00
C=CCc1ccc(O)c(-c2ccc(O)c(CC=C)c2)c1 [HONOKIOL] :: 5.74

We now examine a further compound.
Requested read-out pIC50, target or system Prostaglandin G/H synthase 1 (Ovis aries), entry C=CCc1ccc(O)c(-c2ccc(OC)c(/C=C/C)c2)c1
6.15
